// provenance: paper PMC10914734

- Procedure Summary: Pharmacokinetics in dogs
- Assay type: in vivo
- Test Parameters: male, Beagle, dog, plasma, po, p.o. (5 mg/kg)
Below: a set of entries, each annotated with reported Cmax.
Field format: number, assumed ng/mL, no unit text.

compound="O=C(NCc1ccccc1)C(=O)[C@H](C[C@@H]1CCCNC1=O)NC(=O)[C@H](CC1CCCCC1)NC(=O)c1cc2ccccc2o1 [14b]" outcome_measure=Cmax quantitative_readout=235

Query compound follows.
Incoming: Name the recorded Cmax for O=C(NCc1ccccc1)C(=O)[C@H](C[C@@H]1CCCNC1=O)NC(=O)[C@H](Cc1ccc(F)cc1)NC(=O)c1cc2ccccc2o1 [14a] .
Outgoing: 154
